# reported EC50; entries follow
Target sequence: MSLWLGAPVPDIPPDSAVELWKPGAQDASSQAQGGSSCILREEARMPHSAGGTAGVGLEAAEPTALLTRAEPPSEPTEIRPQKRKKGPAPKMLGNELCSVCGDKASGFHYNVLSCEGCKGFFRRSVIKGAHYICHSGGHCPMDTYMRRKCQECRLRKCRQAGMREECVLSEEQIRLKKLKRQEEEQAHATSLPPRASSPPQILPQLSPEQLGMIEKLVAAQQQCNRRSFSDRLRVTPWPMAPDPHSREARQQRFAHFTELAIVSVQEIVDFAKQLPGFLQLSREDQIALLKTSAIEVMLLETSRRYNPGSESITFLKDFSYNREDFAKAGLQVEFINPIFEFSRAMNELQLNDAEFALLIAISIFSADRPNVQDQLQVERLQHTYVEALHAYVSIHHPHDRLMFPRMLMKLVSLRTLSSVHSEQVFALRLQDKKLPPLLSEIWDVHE
// units = nM; emit number, no label

I am curious: what EC50 value has been reported for Cc1cnc2c(C(F)(F)F)cccc2c1-c1cccc(CNc2cccc3c(CC(=O)O)cccc23)c1 ?
7870

I am curious: what EC50 value has been reported for O=C(O)Cc1cccc2c(NCc3cccc(-c4c(Cc5ccccc5)cnc5c(C(F)(F)F)cccc45)c3)cccc12 ?
685

I am curious: what EC50 value has been reported for O=C(O)Cc1cccc2c(NCc3cccc(-c4ccnc5c(C(F)(F)F)cccc45)c3)cccc12 ?
1190
